B1: TRIM55 (parent)
chain: YLPTRGGTTMASGGRFRCPSCRHE

Variants of: B1
ASSAY_PROCEDURE: protein stability index of a GFP-peptide fusion (GPS, HEK-293T) (PSI 1-6); higher = more stable;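 note: lentivirally expressed fusions sorted by FACS into six bins by GFP to DsRed ratio, PSI derived from sequencing read proportions per bin multiplied by bin number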
CONDITION_NOTES: c terminus: a fixed tail appended
Quick rule for you: protein stability index at 2 or higher means True, lower means False.

YLPTRGGTPMASGGRFRCPSCRHE [T9P]
True
YLPTRGGTTMASGGVFRCPSCRHE [R15V]
False
YKPTRGGTTMASGGRFRCPSCRHE [L2K]
False
YLPTRGGTTMASEGRFRCPSCRHE [G13E]
True
YLPTRGGTTMASGGRFRCPKCRHE [S20K]
True
YLPCRGGTTMASGGRFRCPSCRHE [T4C]
True
YLPTRGGATMASGGRFRCPSCRHE [T8A]
False
YLPTRGGTTMASGGRFRLPSCRHE [C18L]
True
YLPTRGGTTMASGGRFRCPSIRHE [C21I]
True
YLPTRGGRTMASGGRFRCPSCRHE [T8R]
False
YLPTRGGTTMASGGRFRKPSCRHE [C18K]
True
YLPTRGGTTMASGGRFRCPSCRSE [H23S]
True
YLPTRGGTTMASGGRFRCPSMRHE [C21M]
True
YLPTRGGTTCASGGRFRCPSCRHE [M10C]
True
YLPTNGGTTMASGGRFRCPSCRHE [R5N]
False
YLPTRGGTTMASGGRFRCPSCRHL [E24L]
False
YLPWRGGTTMASGGRFRCPSCRHE [T4W]
False
YLPTRGGTTMASGGRFRCWSCRHE [P19W]
True
YMPTRGGTTMASGGRFRCPSCRHE [L2M]
False
